target: RXRβ (UniProt P28704); assay: ligand binding assay; settings: read-out: RXR Bind Ki (nM) β
One threshold, 80 nM, splits the recorded Ki values: lower ones are fulfilled, equal or higher ones are not fulfilled.

// known answers, use as guide
## Task # strict comparison: is reported Ki < 80 nM? input = CCCCCCOc1cc2c(cc1N(CCC)c1ccc(C(=O)O)cc1)C(C)=CCC2(C)C
## Result not fulfilled

## Task Could you do the same for CC1=CCC(C)(C)c2cc(N(CC3CC3)c3ccc(C(=O)O)cc3)c(C)cc21 , please?
## Result not fulfilled

## Task Try this compound too: CCCCCCOc1cc2c(cc1N(CC)c1ccc(C(=O)O)cc1)C(C(C)C)=CCC2(C)C
## Result not fulfilled

Here is another compound to look at.
## Task Hello, is Ki of the following compound strictly smaller than 80 nM? CCN(c1ccc(C(=O)O)cc1)c1cc2c(cc1OCc1cc(C(C)(C)C)cc(C(C)(C)C)c1)C(C)(C)CC=C2C(C)C
## Result not fulfilled

Hey, just so you know, these numbers are from patent US20030166932A1.
